logKHSA listing for selected molecules.
MEASURED TARGET: human serum albumin (HSA) (Homo sapiens)
Sequence (P02768 25-609): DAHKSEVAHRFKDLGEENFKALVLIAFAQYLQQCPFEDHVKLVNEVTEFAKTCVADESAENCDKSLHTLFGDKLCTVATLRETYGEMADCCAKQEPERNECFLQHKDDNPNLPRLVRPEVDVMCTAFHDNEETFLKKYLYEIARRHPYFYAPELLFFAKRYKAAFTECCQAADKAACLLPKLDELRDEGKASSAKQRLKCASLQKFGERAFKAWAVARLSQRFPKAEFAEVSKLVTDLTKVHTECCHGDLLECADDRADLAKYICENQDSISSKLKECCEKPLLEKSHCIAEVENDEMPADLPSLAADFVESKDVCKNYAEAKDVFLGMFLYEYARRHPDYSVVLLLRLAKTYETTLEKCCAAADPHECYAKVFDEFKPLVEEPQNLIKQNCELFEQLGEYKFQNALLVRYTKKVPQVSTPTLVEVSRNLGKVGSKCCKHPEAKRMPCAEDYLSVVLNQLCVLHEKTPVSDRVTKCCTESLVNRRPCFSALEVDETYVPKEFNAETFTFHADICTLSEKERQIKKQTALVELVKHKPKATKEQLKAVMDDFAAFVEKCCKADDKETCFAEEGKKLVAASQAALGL
PROTOCOL SUMMARY: Binding to HSA, Chiralpak HSA column
COND: Chiralpak HSA column
RESULT TYPE: logKHSA

MOLECULE	VALUE
COc1cccc2c1CNC(NS(=O)(=O)c1cccc3ccccc13)=N2	1.4
O=S(=O)(NC1=Nc2ccccc2CN1)c1cccc(Cl)c1	1.0
CC1NC(NS(=O)(=O)c2cccc3ccccc23)=Nc2cccc(F)c21 (centres unmarked)	1.3
Cc1cccc2c1CNC(NS(=O)(=O)c1cccc3ccccc13)=N2	1.4
O=S(=O)(Nc1nc2ccccc2[nH]1)c1cccc2ccccc12	1.3
O=S(=O)(NC1=Nc2ccc(Cl)cc2CN1)c1cccc2ccccc12	1.5
CC1OC(NS(=O)(=O)c2cccc3ccccc23)=Nc2ccccc21 (centres unmarked)	1.3
CC1NC(NS(=O)(=O)c2cccc3ccccc23)=Nc2ccc(Br)cc21 (centres unmarked)	1.6
CN1CCN2c3ncccc3Cc3ccccc3C2C1 (centres unmarked) [Mirtazapine, reference compound]	0.51
O=S(=O)(NC1=Nc2c(Cl)cc(Cl)cc2CN1)c1cccc2ccccc12	1.7
COc1ccc(C(CN(C)C)C2(O)CCCCC2)cc1 (centres unmarked) [Venlafaxine, reference compound]	-0.55
O=S(=O)(NC1=Nc2ccccc2CN1)c1cccc2cc(Cl)ccc12	1.6
CN(C)CCC=C1c2ccccc2CCc2ccccc21 [Amitriptyline, reference compound]	0.87
O=S(=O)(NC1=Nc2cccc(F)c2CN1)c1cccc2ccccc12	1.3
